SYSTEM_NAME: PCT-65 receptor (Rattus norvegicus, UniProt P32305)
Construct: expressed in transfected cells; host or cells: COS-7 cells (transient, calcium phosphate, pSRα-65)
Sequence (P32305 45-448): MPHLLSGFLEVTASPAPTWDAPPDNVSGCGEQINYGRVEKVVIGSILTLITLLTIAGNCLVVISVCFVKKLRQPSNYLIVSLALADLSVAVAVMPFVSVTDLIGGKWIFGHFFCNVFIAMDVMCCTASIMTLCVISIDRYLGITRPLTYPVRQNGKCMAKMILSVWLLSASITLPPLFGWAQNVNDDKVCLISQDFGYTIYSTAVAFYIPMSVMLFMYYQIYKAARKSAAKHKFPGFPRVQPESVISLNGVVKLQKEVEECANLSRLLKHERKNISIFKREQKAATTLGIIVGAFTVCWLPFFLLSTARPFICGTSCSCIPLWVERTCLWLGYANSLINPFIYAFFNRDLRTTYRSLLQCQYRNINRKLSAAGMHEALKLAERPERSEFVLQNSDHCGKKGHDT
ASSAY_COMMENT: [3H]-LSD competition binding to PCT-65 receptor in membranes of transfected COS-7 cells
CONDITION: competing with [3H]-LSD (1.5-2.2 nM), COS-7 membranes, pH 7.4, 37 °C, 60 min; geometric mean ± SEM (n=3)
Here, each record is paired with measured Ki data.
Mention the unit after the number when you answer.

Example compounds with recorded Ki:
If you can, please state the reported Ki value of COc1ccccc1N1CCNCC1 . 244 nM

If you can, please state the reported Ki value of CCCN1C[C@H](CSC)C[C@@H]2c3cccc4[nH]cc(c34)C[C@H]21 [Pergolide] . 4.78 nM

If you can, please state the reported Ki value of NCCc1c[nH]c2ccccc12 . 32.9 nM

If you can, please state the reported Ki value of Cc1nc2sccn2c(=O)c1CCN1CCC(=C(c2ccc(F)cc2)c2ccc(F)cc2)CC1 . 21.7 nM

More entries:
If you can, please state the reported Ki value of NCCc1c[nH]c2ccc(C(N)=O)cc12 . 0.33 nM

====

Here, each record is paired with measured log10 Ki data.
SYSTEM_NAME: PCT-65 receptor (Rattus norvegicus, UniProt P32305)
Construct: expressed in transfected cells; host or cells: COS-7 cells (transient, calcium phosphate, pSRα-65)
ASSAY_COMMENT: [3H]-LSD competition binding to PCT-65 receptor in membranes of transfected COS-7 cells
CONDITION: competing with [3H]-LSD (1.5-2.2 nM), COS-7 membranes, pH 7.4, 37 °C, 60 min; geometric mean ± SEM (n=3)
// stored as log10 of Ki expressed in nM

Example compounds with recorded log10 Ki:
Return log10 Ki measured with PCT-65 receptor (Rattus norvegicus, UniProt P32305) given this compound: CN1C[C@H](CNC(=O)OCc2ccccc2)C[C@@H]2c3cccc4c3c(cn4C)C[C@H]21 0.31

Return log10 Ki measured with PCT-65 receptor (Rattus norvegicus, UniProt P32305) given this compound: CC(C)C[C@H]1C(=O)N2CCC[C@H]2[C@]2(O)O[C@](NC(=O)[C@@H]3C=C4c5cccc6[nH]c(Br)c(c56)C[C@H]4N(C)C3)(C(C)C)C(=O)N12 1.03

Return log10 Ki measured with PCT-65 receptor (Rattus norvegicus, UniProt P32305) given this compound: Clc1cccc(N2CCNCC2)c1 2.55

Return log10 Ki measured with PCT-65 receptor (Rattus norvegicus, UniProt P32305) given this compound: c1ccc2c(N3CCNCC3)cccc2c1 1.53

Return log10 Ki measured with PCT-65 receptor (Rattus norvegicus, UniProt P32305) given this compound: O=C(c1ccc(F)cc1)C1CCN(CCn2c(=O)[nH]c3ccccc3c2=O)CC1 2.32

More entries:
Return log10 Ki measured with PCT-65 receptor (Rattus norvegicus, UniProt P32305) given this compound: CN(C)CCC=C1c2ccccc2CCc2ccccc21 2.09

Return log10 Ki measured with PCT-65 receptor (Rattus norvegicus, UniProt P32305) given this compound: CN1CCN(C2=Nc3ccccc3Oc3ccc(Cl)cc32)CC1 2.24

Return log10 Ki measured with PCT-65 receptor (Rattus norvegicus, UniProt P32305) given this compound: CN1C[C@@H](NS(=O)(=O)N(C)C)C[C@@H]2c3cccc4c3c(cn4C)C[C@H]21 0.85
